# assay info: Thermodynamic solubility of voruciclib HCl by the shake-flask method (HPLC)
# Type: physicochemical
# protocol conditions: cyclohexane, organic solvent or mixture, thermodynamic from solid, Cyclohexane; RT, 24 h, amorphous API, HPLC; read-out: Solubility
Structures can show the parent of a compound that is named as a salt.
readout name: solubility at 24 h

Task: Given CN1CC[C@@H](c2c(O)cc(O)c3c(=O)cc(-c4ccc(C(F)(F)F)cc4Cl)oc23)[C@@H]1CO [voruciclib HCl] , state its recorded solubility at 24 h.
Result: < 100 µg/mL

====

# assay info: Thermodynamic solubility of voruciclib HCl by the shake-flask method (HPLC)
# Format: physicochemical
# protocol conditions: N,N-dimethylacetamide, organic solvent or mixture, thermodynamic from solid, N,N-Dimethylacetamide; RT; amorphous API; no suspension obtained, concentration of the solution after first aliquot; read-out: Solubility
Counter-ions that a name gives are not always drawn.
readout name: solubility

Task: Given CN1CC[C@@H](c2c(O)cc(O)c3c(=O)cc(-c4ccc(C(F)(F)F)cc4Cl)oc23)[C@@H]1CO [voruciclib HCl] , state its recorded solubility.
Result: > 400 mg/mL

====

# assay info: Quantitative solubility determination of voruciclib malonate after the thermocycling experiments (UPLC)
# Format: physicochemical
# protocol conditions: organic solvent or mixture, thermodynamic from solid, toluene, anisole, MTBE, diethyl ether, pentane, cyclohexane and n-heptane, read-out: Solubility classification
readout name: solubility

Task: Given CN1CC[C@H](c2c(O)cc(O)c3c(=O)cc(-c4ccc(C(F)(F)F)cc4Cl)oc23)[C@H]1CO (stereo in doubt) [voruciclib malonate] , state its recorded solubility.
Result: < 100 µg/mL

====

Exercise: state measured pH (4 h) for each of the molecules provided.
# assay info: Solubility of salts in water and in 0.2 M phosphate buffer pH 6 at 37° C. after 4 hours (HPLC-DAD)
# Type: physicochemical
# protocol conditions: 0.2M phosphate buffer pH 6, 37° C., about 5 mg salt in 1 mL, pH at end of equilibration
The answer should be written as a number, with no unit following it.

Task: Given CN1CCC(c2c(O)cc(O)c3c(=O)cc(-c4ccc(C(F)(F)F)cc4Cl)oc23)C1CO.O=P(O)(O)O (centres unmarked) , state its recorded pH (4 h).
Result: 5.8

Task: Note, next up: CN1CCC(c2c(O)cc(O)c3c(=O)cc(-c4ccc(C(F)(F)F)cc4Cl)oc23)C1CO.CN1CCC(c2c(O)cc(O)c3c(=O)cc(-c4ccc(C(F)(F)F)cc4Cl)oc23)C1CO.O=C(OC(C(=O)O)C(OC(=O)c1ccccc1)C(=O)O)c1ccccc1 (centres unmarked)
Result: 6.3

Task: Note, next up: `CN1CC[C@@H](c2c(O)cc(O)c3c(=O)cc(-c4ccc(C(F)(F)F)cc4Cl)oc23)[C@@H]1CO.CN1CC[C@@H](c2c(O)cc(O)c3c(=O)cc(-c4ccc(C(F)(F)F)cc4Cl)oc23)[C@@H]1CO.O=S(=O)(O)c1cccc2c(S(=O)(=O)O)cccc12`
Result: 5.9

Task: Note, next up: `CN1CC[C@@H](c2c(O)cc(O)c3c(=O)cc(-c4ccc(C(F)(F)F)cc4Cl)oc23)[C@@H]1CO.O=C(O)CC(=O)O`
Result: 5.8

Task: Note, next up: `CN1CC[C@@H](c2c(O)cc(O)c3c(=O)cc(-c4ccc(C(F)(F)F)cc4Cl)oc23)[C@@H]1CO.CN1CC[C@@H](c2c(O)cc(O)c3c(=O)cc(-c4ccc(C(F)(F)F)cc4Cl)oc23)[C@@H]1CO.O.O=C(O)C(=O)O`
Result: 5.8
